# Test system: A498
# protocol notes: NCI tumour cell line growth inhibition, 48 h
Active and inactive are the calls of the source. No stated cut-off is given here; in the data, active = GI50 up to about 1.1 µM and inactive = higher.
Outcome codes: 1 = active, -1 = inactive

1) CC1(C)CC(=O)c2c(nc(SSc3nc4c(c(-c5ccc(Br)cc5)c3C#N)C(=O)CC(C)(C)C4)c(C#N)c2-c2ccc(Br)cc2)C1; -1
2) OC1c2c(ccc3c2CCC3)CC12Cc1ccccc1C2 (stereo not drawn); -1
3) COc1ccc(C[C@H]2NC[C@H](OC(C)=O)[C@H]2OC(C)=O)cc1; 1
4) COC1=C(C)C(=O)c2c(c(COC(N)=O)c3n2CC2C3N2C)C1=O (stereo not drawn); 1
5) C=C(C)C(CC=C(C)C)Cc1c(O)cc(OC)c2c1OC(c1ccc(O)cc1O)C(O)C2=O (stereo not drawn); -1
6) COC(=O)C1C(O)C(C)C(O)OC1C(C)C(O)C(C)/C=C\C=C(/C)C(=O)Nc1c(C)c(OC(C)=O)c2c(c1O)C(=O)C(C)=C1OCOC(/C(C)=C/C(C)=O)=C12 (stereo not drawn); -1
7) CCOC(=N)/C(=C1\OC(=N)C(c2ccc(Cl)cc2)=C1O)c1ccc(Cl)cc1; -1
8) O=C(O)c1cn2c3c(cc(N4CCN(CCO)CC4)cc3c1=O)SCC2; -1
9) Cc1cccc(NC(=O)CC2C(=O)Nc3ccccc3S2(=O)=O)c1C (stereo not drawn); -1
10) Nc1ncnc2c1ncn2[C@]1(CO)C=C(CO)C(O)C1O (stereo partly drawn); -1
11) COC(=O)[C@H](CCSC)NC(=O)c1ccc(CNC(=O)/C(C)=C/c2ccccc2)cc1; -1
12) CC1OC(OC2C(O[C@H]3CC[C@@]4(C)C(=CC[C@H]5[C@@H]6C[C@@H]7O[C@]8(CC[C@@H](C)CO8)[C@@H](C)[C@@H]7[C@@]6(C)CC[C@@H]54)C3)OC(CO)C(OC3OC(CO)C(O)C3O)C2O)C(O)C(O)C1O (stereo partly drawn); 1
13) Nc1ncnc2c1ncc(=O)n2C1CC(O)C(CO)O1 (stereo not drawn); -1
14) N#C[BH2-][n+]1ccc(C(=O)NNCC(F)(F)F)cc1; -1
15) CNC(=O)N1CN(c2ccccc2)C2(CCN(CCCC3(c4ccc(F)cc4)OCCO3)CC2)C1=O; -1
16) COC1=C(C)C(=O)c2c(cc3c(c2O)C(C)(CCC=C(C)C)C(C)O3)C1=O (stereo not drawn); -1
17) O=C(Nc1ccc(Cl)cc1)C(=O)C(C(=O)c1ccccc1-c1ccccc1)C1OC(=O)c2ccccc21 (stereo not drawn); -1
18) Cc1c(Cl)nc(Nc2nc3ccccc3[nH]2)nc1Cl; -1
